experimentalSystem: PYR1-HAB1 (Arabidopsis thaliana)
Construct: 6xHis (N); made in house; host or cells: E. coli BL21[DE3]pLysS (stated for GST-HAB1)
assayName: PP2C activity assay, PYR1-HAB1 inhibition
Assay type: biochemical
conditionSummary: 200 nM test compound, 100 nM HAB1 PP2C, 200 nM receptor; read-out: % Inhibition of PYR/PYL-HAB1 at 200 nM: PYR1
measuredAttribute: activity at 0.2 µM (%)

Example results:
{"chemicalSmiles": "CCCN1C(=O)CCc2cc(NS(=O)(=O)Cc3ccc(Cl)cc3Cl)cc(F)c21", "valueUnit": "%", "reported": 91.5}
{"chemicalSmiles": "CCCN1C(=O)CCc2cc(NS(=O)(=O)Cc3ccc(Br)cc3)cc(F)c21", "valueUnit": "%", "reported": 33.8}

P = CCCN1C(=O)CCc2cc(NS(=O)(=O)Cc3cccc(F)c3)cc(F)c21
Q = CCCN1C(=O)CCc2cc(NS(=O)(=O)Cc3ccc(C)cc3)cc(Cl)c21
For the two items P and Q , which reports the higher activity at 0.2 µM value? # reply format: chosen label
P
(P: 62.4%, Q: 37.9%)

I = CCCN1C(=O)CCc2cc(NS(=O)(=O)Cc3ccc(OC(F)(F)F)cc3)cc(F)c21
II = CCCN1C(=O)CCc2cc(NS(=O)(=O)Cc3ccc(C#N)cc3F)cc(F)c21
For the two items I and II , which reports the higher activity at 0.2 µM value? # reply format: chosen label
I
(I: 54.8%, II: 28.8%)

---

experimentalSystem: PYR1-HAB1 (Arabidopsis thaliana, UniProt O49686)
Construct: 6xHis (N); made in house; host or cells: E. coli BL21[DE3]pLysS (stated for GST-HAB1)
Sequence (O49686 whole entry): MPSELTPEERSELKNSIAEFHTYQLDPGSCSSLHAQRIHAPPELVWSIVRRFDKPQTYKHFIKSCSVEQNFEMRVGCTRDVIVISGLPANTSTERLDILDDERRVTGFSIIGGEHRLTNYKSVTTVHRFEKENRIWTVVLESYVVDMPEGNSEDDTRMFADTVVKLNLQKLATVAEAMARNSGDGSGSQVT
Sequence (Q9CAJ0 23-511 partner): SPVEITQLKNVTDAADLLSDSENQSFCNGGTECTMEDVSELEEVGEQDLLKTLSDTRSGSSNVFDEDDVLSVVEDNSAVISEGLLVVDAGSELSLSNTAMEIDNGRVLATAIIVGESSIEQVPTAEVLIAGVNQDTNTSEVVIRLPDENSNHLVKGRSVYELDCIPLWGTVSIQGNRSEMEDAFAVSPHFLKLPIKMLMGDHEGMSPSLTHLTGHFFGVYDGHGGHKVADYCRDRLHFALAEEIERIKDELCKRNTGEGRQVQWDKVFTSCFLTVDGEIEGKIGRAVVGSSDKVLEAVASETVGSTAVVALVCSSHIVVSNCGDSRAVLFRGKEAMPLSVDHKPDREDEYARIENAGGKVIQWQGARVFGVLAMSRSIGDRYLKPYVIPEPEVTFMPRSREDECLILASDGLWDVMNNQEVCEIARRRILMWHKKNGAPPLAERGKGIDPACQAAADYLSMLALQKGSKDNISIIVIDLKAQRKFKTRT
assayName: PP2C activity assay, PYR1-HAB1 inhibition
Type: biochemical
conditionSummary: dose response in triplicate, non-linear regression
measuredAttribute: IC50 (nM)

Example results:
{"compound": "CCCN1C(=O)CCc2cc(NS(=O)(=O)Cc3ccc(C)cc3)ccc21", "valueUnit": "nM", "IC50": 104}
{"compound": "CCN1C(=O)CC(C)c2cc(NS(=O)(=O)Cc3ccc(C)c(F)c3)cc(F)c21 (stereo not drawn)", "valueUnit": "nM", "IC50": 444}

A = CCc1ccc(CS(=O)(=O)Nc2cc(F)c3c(c2)C(C)CC(=O)N3C(C)C)cc1 (stereo not drawn)
B = COCc1ccc(CS(=O)(=O)Nc2cc(F)c3c(c2)C(C)CC(=O)N3C(C)C)cc1 (stereo not drawn)
Min IC50? A | B # reply format: chosen label
B
(B: 227 nM, A: 462 nM)

a = CCN1C(=O)CC(C)c2cc(NS(=O)(=O)Cc3ccc(C)cc3)cc(F)c21 (stereo not drawn)
b = C=CCN1C(=O)CC(C)c2cc(NS(=O)(=O)Cc3ccc(C)cc3)cc(F)c21 (stereo not drawn)
c = CCN1C(=O)CC(C)c2cc(NS(=O)(=O)Cc3ccc(C(F)(F)F)cc3)cc(F)c21 (stereo not drawn)
Order the 3 compounds from highest to lowest IC50. Return the labels ranked in the requested order, please.
c, b, a
(c: 2370 nM, b: 164 nM, a: 39.6 nM)

---

experimentalSystem: PYR1-HAB1 (Arabidopsis thaliana, UniProt O49686)
Construct: 6xHis (N); made in house; host or cells: E. coli BL21[DE3]pLysS (stated for GST-HAB1)
assayName: PP2C activity assay, PYR1-HAB1 inhibition
Type: biochemical
conditionSummary: dose response in triplicate, non-linear regression
measuredAttribute: IC50 (nM)

{"compound": "CCN1C(=O)CC(C)c2cc(NS(=O)(=O)Cc3ccc(C#N)cc3)cc(F)c21 (centres unmarked) [HQ49]", "reported": 405}
{"compound": "CCN1C(=O)CC(C)c2cc(NS(=O)(=O)Cc3ccc(Cl)cn3)cc(F)c21 (centres unmarked) [HQ54]", "reported": 512}
{"compound": "CCN1C(=O)CC(C)c2cc(NS(=O)(=O)Cc3ccc(C)cc3F)cc(F)c21 (centres unmarked) [HQ48]", "reported": 56}

1 = CCCN1C(=O)CCc2cc(NS(=O)(=O)Cc3ccc(C#N)cc3F)cc(F)c21 [HQ11]
2 = CCN1C(=O)CCc2cc(NS(=O)(=O)Cc3ccc(C)cc3)cc(F)c21 [HQ29]
Min IC50? 1 | 2 # reply format: chosen label
2
(2: 17.2 nM, 1: 61.2 nM)
